- Target Or Test System: T1, extracellular domain of human CD73 protein (CD73-ECD), C-terminus polyhistidine-tagged (UniProt P21589 27-547)
- T1 chain: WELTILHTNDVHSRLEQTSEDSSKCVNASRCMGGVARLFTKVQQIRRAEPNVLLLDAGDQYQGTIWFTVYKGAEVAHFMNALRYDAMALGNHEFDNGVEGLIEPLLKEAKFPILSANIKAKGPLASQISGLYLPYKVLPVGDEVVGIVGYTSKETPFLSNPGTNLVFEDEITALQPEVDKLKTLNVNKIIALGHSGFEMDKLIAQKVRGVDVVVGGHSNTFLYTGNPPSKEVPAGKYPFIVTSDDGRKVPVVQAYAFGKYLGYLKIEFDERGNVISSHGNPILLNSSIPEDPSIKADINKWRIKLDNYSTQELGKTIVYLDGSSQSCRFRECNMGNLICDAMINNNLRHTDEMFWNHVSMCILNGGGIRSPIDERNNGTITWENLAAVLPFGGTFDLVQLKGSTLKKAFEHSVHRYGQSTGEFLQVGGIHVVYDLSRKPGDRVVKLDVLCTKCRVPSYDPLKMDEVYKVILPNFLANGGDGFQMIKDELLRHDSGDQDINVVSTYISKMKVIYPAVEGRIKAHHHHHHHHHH
- Test Method Notes: ELISA
Reported pEC50 is given for each of the following binders.
In plain terms, pEC50 is the concentration in mol/L turned into minus its base-10 logarithm.

Consider the reported pEC50 for these binders:
{"columns": ["Binder", "pEC50"],
 "data": [
  ["Hu002c-11 (antibody, V domains shown) VH: QVQLVQSGAEVKKPGASVKVSCKASGYTLTSYWMHWVRQAPGQGLEWIGEINPSQGRSNYNEKFKSKVTLTVDRSTSTVYMELSSLRSEDTAVYYCARRGVSGNYFDYWGQGTLVTVSS VL: DIQMTQSPSSLSASVGDRVTITCKASQDINTYLSWFQQKPGKSPKSLIYRSNILVSGVPSRFSGSGSGQDYTLTISSLQPEDFATYYCLQYDEFPYTFGGGTKLEIK", 10.02],
  ["Hu001c-31 (antibody, V domains shown) VH: QVQLVQSGAEVKKPGASVKVSCKASGYTFTNYYIYWVRQAPGQRLEWIGWIYPGNLNIKYNEKFKGRSTLTADKSASTAYMELSSLRSEDTAVYYCARDDNYAWFAYWGQGTLVTVSS VL: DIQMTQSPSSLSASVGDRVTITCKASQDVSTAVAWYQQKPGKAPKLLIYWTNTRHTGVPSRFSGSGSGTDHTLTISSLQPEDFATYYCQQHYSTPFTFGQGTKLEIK", 9.96]
]}

Could you now consider this next binder?
Give pEC50 for the following binder: Hu001c-30 (antibody, V domains shown) VH: QVQLVQSGAEVKKPGASVKVSCKASGYTFTNYYIYWVKQRPGQRLEWIGWIYPGNLNIKYNEKFKGRSTLTADKSASTAYMELSSLRSEDTAVYYCARDDNYAWFAYWGQGTLVTVSS VL: DIQMTQSPSSLSASVGDRVTITCKASQDVSTAVAWYQQKPGKAPKLLIYWTNTRHTGVPSRFSGSGSGTDFTLTISSLQPEDFATYYCQQHYSTPFTFGQGTKLEIK
9.86
